# credit: patent US11884661B2

target: human αVβ8 (Homo sapiens, UniProt P06756+P26012); assay: human αVβ8 HTRF binding assay
Sequence (P06756 31-992 limits assumed): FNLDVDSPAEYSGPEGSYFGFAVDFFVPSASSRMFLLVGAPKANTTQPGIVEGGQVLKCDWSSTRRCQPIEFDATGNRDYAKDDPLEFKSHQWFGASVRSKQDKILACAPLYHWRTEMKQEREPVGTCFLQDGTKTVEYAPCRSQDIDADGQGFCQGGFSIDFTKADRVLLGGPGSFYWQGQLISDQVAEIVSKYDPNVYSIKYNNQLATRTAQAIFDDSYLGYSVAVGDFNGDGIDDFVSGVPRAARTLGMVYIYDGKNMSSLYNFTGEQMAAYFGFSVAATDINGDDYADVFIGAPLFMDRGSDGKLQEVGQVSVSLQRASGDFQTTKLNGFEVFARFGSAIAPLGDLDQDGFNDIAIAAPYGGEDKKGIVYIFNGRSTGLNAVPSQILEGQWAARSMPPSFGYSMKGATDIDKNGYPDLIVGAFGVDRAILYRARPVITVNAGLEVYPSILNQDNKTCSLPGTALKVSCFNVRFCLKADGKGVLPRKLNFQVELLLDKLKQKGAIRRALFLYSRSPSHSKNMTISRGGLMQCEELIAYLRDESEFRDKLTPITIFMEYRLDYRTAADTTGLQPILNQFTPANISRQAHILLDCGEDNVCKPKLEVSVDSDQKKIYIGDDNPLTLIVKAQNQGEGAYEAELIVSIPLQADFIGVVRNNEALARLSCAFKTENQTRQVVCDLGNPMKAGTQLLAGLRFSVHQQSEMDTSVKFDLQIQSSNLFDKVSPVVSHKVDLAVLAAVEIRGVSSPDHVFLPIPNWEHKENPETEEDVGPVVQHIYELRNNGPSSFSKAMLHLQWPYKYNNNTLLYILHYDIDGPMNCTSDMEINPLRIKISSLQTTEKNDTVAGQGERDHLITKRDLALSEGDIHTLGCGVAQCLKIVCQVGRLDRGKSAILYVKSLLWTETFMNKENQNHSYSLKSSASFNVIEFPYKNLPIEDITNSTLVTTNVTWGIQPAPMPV
Sequence (P26012 43-684 limits assumed): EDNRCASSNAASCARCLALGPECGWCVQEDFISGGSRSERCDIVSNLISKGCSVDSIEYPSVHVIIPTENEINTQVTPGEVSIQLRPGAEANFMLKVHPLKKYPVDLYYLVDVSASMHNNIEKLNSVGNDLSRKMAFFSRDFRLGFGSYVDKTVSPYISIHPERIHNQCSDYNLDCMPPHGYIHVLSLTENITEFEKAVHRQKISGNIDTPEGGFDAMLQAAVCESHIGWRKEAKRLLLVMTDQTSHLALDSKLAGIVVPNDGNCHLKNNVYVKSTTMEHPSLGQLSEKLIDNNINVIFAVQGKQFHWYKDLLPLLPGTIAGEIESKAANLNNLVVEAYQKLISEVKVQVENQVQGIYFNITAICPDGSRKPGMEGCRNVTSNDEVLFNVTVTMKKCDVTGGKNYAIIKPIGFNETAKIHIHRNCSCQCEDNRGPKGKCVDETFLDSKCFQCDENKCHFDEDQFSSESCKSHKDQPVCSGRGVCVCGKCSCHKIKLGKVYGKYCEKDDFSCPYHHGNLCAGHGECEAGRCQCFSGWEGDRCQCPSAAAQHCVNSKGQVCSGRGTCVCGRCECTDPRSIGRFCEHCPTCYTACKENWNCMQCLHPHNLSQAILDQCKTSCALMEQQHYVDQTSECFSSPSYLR
pIC50: −log10 of the molar value.
measured.parameter: pIC50

Examples with their reported pIC50 follow.
[
  {
    "compound": "COc1ccc(C(CC(=O)O)c2nc(CCCc3ccc4c(n3)NCCC4)cs2)cc1F (single isomer, unassigned)",
    "measured.parameter": "pIC50",
    "recorded.value": 6.07
  },
  {
    "compound": "O=C(O)CC(c1cccc(N2CCOCC2)c1)n1ccc(CCCc2ccc3c(n2)NCCC3)n1 (racemic)",
    "measured.parameter": "pIC50",
    "recorded.value": 5.57
  }
]

a. CCOc1ncc(C(CC(=O)O)n2ccc(CCCc3ccc4c(n3)NCCC4)n2)cn1 (racemic)
b. COc1ccc(C(CC(=O)O)n2ccc(CCCc3ccc4c(n3)NCCC4)n2)cn1 (racemic) [Example 2]
Enquiry: Would you mind telling me which has the lower recorded pIC50 between a and b ? Refer to your chosen item by its label in the answer.
Return: a
(a: 5.74, b: 6.38)
